Field: cell viability (log2). Provide a value for each of the molecules that follow.
tested on: A673/TR/shEF; experiment: cell viability (LOESS-normalised, relative to median of negative controls) (log2 ratio); higher = more viable cells (less compound effect), active = hit call of the paper (over 3 MAD below the median); details: 0.025 µM; library screen: screen1; EWS-FLI1 expression: high (no doxycycline); treatment time: 72 h
Among all 3,200 compounds or so, about 300 (9.4%) showed activity. The full list was thinned out, with actives kept by preference.
Please respond with just the number, no unit label.

Determine its reported cell viability (log2): "N#CC(C#N)=Cc1cc(O)c(O)c([N+](=O)[O-])c1" 0.235

Report measured cell viability (log2); entry is "CC(C)(C)c1cc(C=C(C#N)C#N)cc(C(C)(C)C)c1O" 0.176

Please give the documented cell viability (log2) of CC1(C)C(C=C(Cl)Cl)C1C(=O)OC(C#N)c1cccc(Oc2ccccc2)c1 (configuration not stated) 0.0827

Please look at this molecule and report its cell viability (log2): "OC[C@H]1O[C@@H](n2cnc3cc(Cl)c(Cl)cc32)[C@H](O)[C@@H]1O" 0.182

Please report cell viability (log2) for the following molecule: "CC(=O)c1c(O)c(C)c(O)c(Cc2c(O)c3c(c(C(=O)/C=C/c4ccccc4)c2O)OC(C)(C)C=C3)c1O" 0.0285

Return reported cell viability (log2). Input molecule: "C/C(O)=C(\C#N)C(=O)Nc1cc(Br)ccc1Br" 0.198

Provide cell viability (log2) value for the following molecule: "COC[C@H]1OC(=O)c2coc3c2[C@@]1(C)C1=C(C3=O)[C@@H]2CCC(=O)[C@@]2(C)C[C@H]1OC(C)=O" 0.254

====

system: A673/TR/shEF; assay: cell viability (LOESS-normalised, relative to median of negative controls) (log2 ratio); higher = more viable cells (less compound effect), active = hit call of the paper (over 3 MAD below the median); conditions: 25 µM; library screen: screen3; EWS-FLI1 expression: high (no doxycycline); treatment time: 72 h
Among all 3,200 compounds or so, about 300 (9.4%) showed activity. For the sample, actives were picked, then their nearest neighbours and some compounds at random.
measurement.kind: cell viability (log2)

Give a short answer stating reported cell viability (log2) for "CN(C)[C@@H]1C(=O)C(C(N)=O)=C(O)[C@@]2(O)C(=O)C3=C(O)c4c(O)cccc4[C@@](C)(O)[C@H]3[C@H](O)[C@@H]12" . 0.0616 (inactive)

Consider the compound CN1[C@H]2CC(OC(=O)C(CO)c3ccccc3)C[C@H]1[C@H]1O[C@H]12 (some centres undefined) . State its measured cell viability (log2). -0.0119 (inactive)

Specify measured cell viability (log2) for "Cc1cccc(C)c1NC(=O)CN1CCCC1=O" . 0.154 (inactive)

Answer with the recorded cell viability (log2) of CN1[C@@H]2CC[C@H]1CC(OC(=O)C(CO)c1ccccc1)C2 (some centres undefined) only. -0.025 (inactive)

====

system: A673/TR/shEF; experiment: cell viability (LOESS-normalised, relative to median of negative controls) (log2 ratio); higher = more viable cells (less compound effect), active = hit call of the paper (over 3 MAD below the median); details: 0.25 µM; library screen: screen1; EWS-FLI1 expression: low (doxycycline-induced shRNA knockdown); treatment time: 72 h
About 300 (9.4%) of roughly 3,200 compounds showed activity. What follows is part of a selection rich in actives, with near analogues and random picks from the rest.
For each record, write down the corresponding cell viability (log2).
In your answer, state the number alone without any accompanying words.

Look up and state reported cell viability (log2) for "ClC1=C(Cl)[C@]2(Cl)[C@H]3[C@H]([C@@H]4C=C[C@H]3C4)[C@@]1(Cl)C2(Cl)Cl" 0.0643

Return cell viability (log2) (reported value) for this compound: "N[C@@H](Cc1ccc(N(CCCl)CCCl)cc1)C(=O)O" 0.0161

Supply recorded cell viability (log2) for "O=C(O)CCCc1ccc(N(CCCl)CCCl)cc1" here. 0.0808

Kindly indicate its recorded cell viability (log2). Item: "S=C=NCc1ccccc1" 0.0817

Provide one value: measured cell viability (log2) of "C=C(C)c1cc2cc(C(C)=O)c(O)cc2o1" 0.098

Answer with reported cell viability (log2) of "O=c1cccc2n1C[C@@H]1CNC[C@H]2C1" -0.00559

Given "CC1(C)[C@H](C(=O)O[C@H](C#N)c2cccc(Oc3ccccc3)c2)[C@@H]1C=C(Br)Br" , respond with its cell viability (log2). 0.086

Read off the recorded cell viability (log2) for "NC(=O)c1cc([N+](=O)[O-])cc([N+](=O)[O-])c1" 0.00829

Identify the reported cell viability (log2) for the following entry. "CC[C@H]1CN2CCc3cc(OC)c(OC)cc3[C@@H]2C[C@@H]1C[C@H]1NCCc2cc(OC)c(OC)cc21" 0.116

Kindly indicate its recorded cell viability (log2). Item: CC1(C)C(C=C(Cl)Cl)C1C(=O)OC(C#N)c1cccc(Oc2ccccc2)c1 (stereo unspecified) -0.0402

Give the value of cell viability (log2) reported for the following: "COc1ccc(C(=O)O)cc1OC" 0.0588
